meta.source: ChEMBL document CHEMBL1144125

- Test system: A549
- method-summary: Cytotoxicity against human A549 cells
- Assay type: functional
- assay-conditions: read-out: ED50 (the source's name)
Entries and their EC50

compound | result
CCC(=O)O[C@@H]1C[C@@H](OC(C)=O)[C@@]2(C)C=C[C@@H](OC(C)=O)[C@](C)(O)[C@@H]2[C@@H](OC(C)=O)[C@]23O[C@]2(C)C(=O)O[C@H]3/C=C\1C | > 50 mg/L
CCCC(=O)O[C@@H]1C=C[C@]2(C)[C@H](OC(C)=O)C[C@@H](OC(C)=O)/C(C)=C\[C@@H]3OC(=O)[C@@]4(C)O[C@]34[C@H](OC(C)=O)[C@H]2[C@@]1(C)O | > 50 mg/L
CCC(=O)O[C@H]1C[C@H](OC(C)=O)[C@@]2(C)[C@H]([C@H]1C)[C@@H](OC(C)=O)[C@]13O[C@]1(C)C(=O)O[C@H]3/C=C(/C)C[C@H](OC(C)=O)[C@H]2OC(C)=O [EXCAVATOLIDE V] | 19.1 mg/L
CCCC(=O)O[C@H]1C/C(C)=C\[C@@H]2OC(=O)[C@@]3(C)O[C@]23[C@H](OC(C)=O)[C@H]2[C@@H](C)[C@@H](OC(=O)CC)C[C@H](OC(C)=O)[C@]2(C)[C@@H]1OC(C)=O [EXCAVATOLIDE U] | > 50 mg/L

Now take the following compound into account.
Return reported EC50. Input compound: CCC(=O)O[C@H]1C[C@H](OC(C)=O)[C@@]2(C)[C@H]([C@H]1C)[C@@H](O)[C@]13O[C@]1(C)C(=O)O[C@H]3/C=C(/C)CC[C@H]2OC(C)=O [EXCAVATOLIDE W]
> 50 mg/L
